test: Flowability (compressibility index, USP <1174>); format: physicochemical
ATTRIBUTE MEASURED: Bulk density (g/mL)

COMPOUND | Bulk density [g/mL]
CCNCCc1ccc(CN(CC)c2cc(OC)ccc2[C@@H]2CCc3cc(O)ccc3C2)cc1 [Form CSII] | 0.237
CCNCCc1ccc(CN(CC)c2cc(OC)ccc2[C@@H]2CCc3cc(O)ccc3C2)cc1 [Prior art Form 1B, reference compound] | 0.198

Origin of measurements: patent US20250282711A1
